- subjectOfTest: Ubiquitin carboxyl-terminal hydrolase 28 (Homo sapiens) (UniProt Q96RU2)
- Sequence (Q96RU2 whole entry, looked up): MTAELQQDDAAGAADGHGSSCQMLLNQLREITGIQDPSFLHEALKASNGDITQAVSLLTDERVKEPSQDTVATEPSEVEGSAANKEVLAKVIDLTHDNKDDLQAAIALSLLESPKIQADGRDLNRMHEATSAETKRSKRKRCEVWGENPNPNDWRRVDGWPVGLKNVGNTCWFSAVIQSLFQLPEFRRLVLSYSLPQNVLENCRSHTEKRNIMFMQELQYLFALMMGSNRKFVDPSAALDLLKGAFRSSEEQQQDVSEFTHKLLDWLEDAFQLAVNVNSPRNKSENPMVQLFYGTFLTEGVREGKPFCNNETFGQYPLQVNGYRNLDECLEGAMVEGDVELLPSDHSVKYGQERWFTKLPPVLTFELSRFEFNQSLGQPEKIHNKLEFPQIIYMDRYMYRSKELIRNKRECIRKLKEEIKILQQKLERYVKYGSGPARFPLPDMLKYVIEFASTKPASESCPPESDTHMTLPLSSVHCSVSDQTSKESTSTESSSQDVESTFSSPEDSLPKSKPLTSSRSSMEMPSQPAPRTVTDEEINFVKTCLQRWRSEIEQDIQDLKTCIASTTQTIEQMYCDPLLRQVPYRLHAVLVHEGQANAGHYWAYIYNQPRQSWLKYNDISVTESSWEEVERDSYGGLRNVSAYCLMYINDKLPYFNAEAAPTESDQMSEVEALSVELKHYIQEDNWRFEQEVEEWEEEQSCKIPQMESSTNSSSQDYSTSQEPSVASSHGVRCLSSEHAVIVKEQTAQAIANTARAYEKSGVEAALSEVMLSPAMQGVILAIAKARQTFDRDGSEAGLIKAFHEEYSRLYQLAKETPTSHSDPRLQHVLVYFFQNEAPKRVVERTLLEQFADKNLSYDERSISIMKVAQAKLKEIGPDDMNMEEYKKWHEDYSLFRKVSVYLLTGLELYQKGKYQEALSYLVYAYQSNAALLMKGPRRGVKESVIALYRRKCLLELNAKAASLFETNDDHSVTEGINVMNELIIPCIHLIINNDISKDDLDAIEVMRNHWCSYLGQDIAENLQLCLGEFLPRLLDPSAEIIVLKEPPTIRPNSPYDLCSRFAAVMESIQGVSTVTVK
- protocolNotes: Concentration-response biochemical assay confirming initial hits as inhibitors of ubiquitin-specific protease 28 (AID 1645866)
- measurementSetup: purified USP28, ubiquitin-rhodamine fluorescence, 30 min
Active and inactive are the calls of the source.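 Rule for the calls: active = in confirmatory dose-response testing, peak deubiquitinase inhibition of 30% or more; inactive = the rest.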
Mark one answer only. Choices: class 1 for active, class 0 for inactive

Query: Please share the test call associated with `O=c1c(Nc2cccc(F)c2)nc2ccncc2n1Cc1ccccc1` .
Response: class 1

Query: Please share the test call associated with `Cc1c(C(=O)Nc2ccc(-c3nnc4n3CCCCC4)cc2)oc2c1ccc1ccccc12` .
Response: class 1

Query: Please share the test call associated with CC1=C2C(=NCCN1)C(=O)N(c1ccccc1)C2c1cccnc1 (stereo not given) .
Response: class 0

Query: Please share the test call associated with `Cc1ccc(Cn2cc(-c3noc(-c4ccc[nH]4)n3)nn2)cc1` .
Response: class 1

Query: Please share the test call associated with COc1ccc(C(C(=O)NC2CCCCC2)N(C(=O)CCCC(=O)Nc2ccccn2)c2ccccc2C)cc1 (stereo not given) .
Response: class 1

Query: Please share the test call associated with `O=C(Nc1ccc2c(c1)OCCO2)C1CCN(C(=O)c2ccccc2)CC1` .
Response: class 1

Query: Please share the test call associated with `O=C(Nc1ccc2c(c1)OCCO2)c1ccc(N2CCCCC2)nn1` .
Response: class 1

Query: Please share the test call associated with `COc1ccc(-c2cc(C(=O)N3CCN(c4ccc([N+](=O)[O-])cc4)CC3)[nH]n2)cc1` .
Response: class 0

Query: Please share the test call associated with `Cc1csc2ncc(C(=O)N3CCN(c4ccccc4F)CC3)c(=O)n12` .
Response: class 0

Query: Please share the test call associated with `Cc1cc(C(=O)Nc2ccc3nc(N4CCN(c5ncccn5)CC4)cc(C)c3c2)ccc1[N+](=O)[O-]` .
Response: class 1
